# Tgt: Dual specificity mitogen-activated protein kinase kinase 4 (Homo sapiens) (UniProt P45985)
# Experimental protocol: Inhibition of wild-type human partial length MKK4 (S84 to D399 residues) expressed in mammalian expression system assessed as residual activity at 100 nM by KINOMEscan method relative to control
Test readout: Activity (%)
Report only the number, with the unit % understood.

Look over these answered cases.
| Smiles entry | Activity [%] |
| --- | --- |
| CCCS(=O)(=O)Nc1ccc(F)c(C(=O)c2ccc3[nH]c4ncc(-c5cnc(C(=O)NCCCCNC(=O)c6ccc(-c7c8ccc(=[N+](C)C)cc-8oc8cc(N(C)C)ccc78)c(C(=O)[O-])c6)nc5)cc4c3c2)c1F | 9.3 |
| CCCS(=O)(=O)Nc1ccc(F)c(C(=O)c2ccc3[nH]c4ncc(-c5ccc(C(=O)NCCCCNC(=O)c6ccc(-c7c8ccc(=[N+](C)C)cc-8oc8cc(N(C)C)ccc78)c(C(=O)[O-])c6)nc5)cc4c3c2)c1F | 1.3 |
| CCCS(=O)(=O)Nc1ccc(F)c(C(=O)c2c[nH]c3ncc(-c4ccc(NC(=O)CNC(=O)c5ccc(-c6c7ccc(=[N+](C)C)cc-7oc7cc(N(C)C)ccc67)c(C(=O)[O-])c5)nc4)cc23)c1F | 8.4 |

Reported Activity ( CCCS(=O)(=O)Nc1ccc(F)c(C(=O)c2ccc3[nH]c4ncc(-c5ccc(C(=O)NCCNC(=O)c6ccc(-c7c8ccc(=[N+](C)C)cc-8oc8cc(N(C)C)ccc78)c(C(=O)[O-])c6)cc5)cc4c3c2)c1F ) = 19

Reported Activity ( CCCS(=O)(=O)Nc1ccc(F)c(C(=O)c2ccc3[nH]c4ncc(-c5ccc(C(=O)NCCCCNC(=O)c6ccc(-c7c8ccc(=[N+](C)C)cc-8oc8cc(N(C)C)ccc78)c(C(=O)[O-])c6)cc5)cc4c3c2)c1F ) = 4.3

====

# Tgt: Dual specificity mitogen-activated protein kinase kinase 4 (Homo sapiens)
# Sequence (whole entry): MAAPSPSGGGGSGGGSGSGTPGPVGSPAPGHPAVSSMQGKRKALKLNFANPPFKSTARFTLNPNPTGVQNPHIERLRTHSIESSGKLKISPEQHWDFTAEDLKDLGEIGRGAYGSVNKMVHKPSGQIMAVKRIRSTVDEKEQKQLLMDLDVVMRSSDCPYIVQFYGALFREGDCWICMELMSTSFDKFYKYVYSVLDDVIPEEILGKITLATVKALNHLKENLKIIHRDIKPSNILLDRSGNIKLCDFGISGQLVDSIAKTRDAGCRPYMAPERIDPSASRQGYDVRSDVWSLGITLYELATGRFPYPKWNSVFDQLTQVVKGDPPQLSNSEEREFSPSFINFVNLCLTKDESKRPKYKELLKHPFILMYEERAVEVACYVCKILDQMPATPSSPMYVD
# Experimental protocol: Inhibition of wild-type human partial length MKK4 (S84 to D399 residues) expressed in mammalian expression system assessed as residual activity at 100 nM by KINOMEscan method relative to control
Lab note - cut at 10% for Activity: rule met if strictly below, rule not met if not.

Use the examples below as a reference point.
| Smiles entry | Assigned class |
| --- | --- |
| CCCS(=O)(=O)Nc1ccc(F)c(C(=O)c2c[nH]c3ncc(-c4ccc(NC(=O)CNC(=O)OC(C)(C)C)cc4)cc23)c1F | rule met |
| CCCS(=O)(=O)Nc1ccc(F)c(C(=O)c2ccc3[nH]c4ncc(-c5ccc(C(=O)NCCCCCNC(=O)c6ccc(-c7c8ccc(=[N+](C)C)cc-8oc8cc(N(C)C)ccc78)c(C(=O)[O-])c6)cc5)cc4c3c2)c1F | rule not met |
| CCCS(=O)(=O)Nc1ccc(F)c(C(=O)c2ccc3[nH]c4ncc(-c5ccc(C(=O)NCCCNC(=O)c6ccc(-c7c8ccc(=[N+](C)C)cc-8oc8cc(N(C)C)ccc78)c(C(=O)[O-])c6)cc5)cc4c3c2)c1F | rule not met |

Please state whether Activity is below 10% for CCCS(=O)(=O)Nc1ccc(F)c(C(=O)c2ccc3[nH]c4ncc(-c5ccc(C(=O)NCCCCCCNC(=O)c6ccc(-c7c8ccc(=[N+](C)C)cc-8oc8cc(N(C)C)ccc78)c(C(=O)[O-])c6)cc5)cc4c3c2)c1F
rule met

====

Examples of compounds with documented Activity follow.
# Tgt: Dual specificity mitogen-activated protein kinase kinase 4 (Homo sapiens)
# Experimental protocol: Inhibition of wild-type human partial length MKK4 (S84 to D399 residues) expressed in mammalian expression system assessed as residual activity at 100 nM by KINOMEscan method relative to control
Report only the number, with the unit % understood.

Look over these answered cases.
| Smiles entry | Test readout | Numeric value |
| --- | --- | --- |
| CCCS(=O)(=O)Nc1ccc(F)c(C(=O)c2ccc3[nH]c4ncc(-c5ccc(NC(=O)CNC(=O)c6ccc(-c7c8ccc(=[N+](C)C)cc-8oc8cc(N(C)C)ccc78)c(C(=O)[O-])c6)cc5)cc4c3c2)c1F | Activity | 13 |
| CCCS(=O)(=O)Nc1ccc(F)c(C(=O)c2c[nH]c3ncccc23)c1F | Activity | 14 |
| CN(C)c1ccc2c(-c3ccc(C(=O)NCC(=O)Nc4ccc(-c5cnc6[nH]cc(C(=O)c7c(F)ccc(NS(=O)(=O)Cc8ccccc8)c7F)c6c5)cn4)cc3C(=O)[O-])c3ccc(=[N+](C)C)cc-3oc2c1 | Activity | 6.6 |
| CCCS(=O)(=O)Nc1ccc(F)c(C(=O)c2c[nH]c3ncc(-c4ccc(NC(=O)CCCCNC(=O)c5ccc(-c6c7ccc(=[N+](C)C)cc-7oc7cc(N(C)C)ccc67)c(C(=O)[O-])c5)nc4)cc23)c1F | Activity | 57 |
| CCCS(=O)(=O)Nc1ccc(F)c(C(=O)c2c[nH]c3ncc(-c4ccc(NC(=O)CNC(=O)c5ccc(-c6c7ccc(=[N+](C)C)cc-7oc7cc(N(C)C)ccc67)c(C(=O)[O-])c5)cc4)cc23)c1F | Activity | 11 |
| CCCS(=O)(=O)Nc1ccc(F)c(C(=O)c2ccc3[nH]c4ncc(-c5ccc(C(=O)NCCCCCCNC(=O)c6ccc(-c7c8ccc(=[N+](C)C)cc-8oc8cc(N(C)C)ccc78)c(C(=O)[O-])c6)nc5)cc4c3c2)c1F | Activity | 4.8 |
| CCCS(=O)(=O)Nc1ccc(F)c(C(=O)c2ccc3[nH]c4ncc(-c5ccc(C(=O)NCCCNC(=O)c6ccc(-c7c8ccc(=[N+](C)C)cc-8oc8cc(N(C)C)ccc78)c(C(=O)[O-])c6)nc5)cc4c3c2)c1F | Activity | 4.5 |

We now examine a further compound.
Reported Activity ( CN(C)c1ccc2c(-c3ccc(C(=O)NCCCCC(=O)Nc4ccc(-c5cnc6[nH]cc(C(=O)c7c(F)ccc(NS(=O)(=O)Cc8ccccc8)c7F)c6c5)cn4)cc3C(=O)[O-])c3ccc(=[N+](C)C)cc-3oc2c1 ) = 13
